Below, each of the binders is paired with its reported Biofilm formation (SDM-glucose), S. mutans UA159, 5 µg/ml peptide value.
target_of_assay: T1, S. mutans ComD protein (histidine kinase) (Streptococcus mutans)
T1 chain: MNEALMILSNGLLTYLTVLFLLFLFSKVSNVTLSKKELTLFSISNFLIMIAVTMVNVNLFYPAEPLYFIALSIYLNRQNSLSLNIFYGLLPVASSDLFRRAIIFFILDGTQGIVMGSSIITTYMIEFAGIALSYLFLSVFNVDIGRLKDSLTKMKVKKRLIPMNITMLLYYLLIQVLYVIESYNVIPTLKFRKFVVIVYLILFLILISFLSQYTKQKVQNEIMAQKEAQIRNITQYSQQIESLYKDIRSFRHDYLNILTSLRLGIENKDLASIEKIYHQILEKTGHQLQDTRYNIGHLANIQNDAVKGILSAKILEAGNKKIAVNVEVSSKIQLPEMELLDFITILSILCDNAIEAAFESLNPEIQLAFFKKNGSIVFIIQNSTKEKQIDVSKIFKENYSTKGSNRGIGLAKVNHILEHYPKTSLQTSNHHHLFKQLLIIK
assay_details: cell-based or functional assay

[
  {
    "binder": "SGSLSTFFRLFNRSFTQALK [Peptide analog F1]",
    "measured_value": "36.7 % biomass (reduction)"
  },
  {
    "binder": "SGSLSTFFRLFNRSFTQALGA [Peptide analog G2]",
    "measured_value": "35.6 % biomass (reduction)"
  },
  {
    "binder": "SGSLSTFFRLFNASFTQALGK [Peptide analog E2]",
    "measured_value": "38.9 % biomass (reduction)"
  },
  {
    "binder": "SGSLSTFFRLFNRSFTQAGK [Peptide analog G1]",
    "measured_value": "24.4 % biomass (reduction)"
  },
  {
    "binder": "SGSLSTFFRLFNRSFTQALGV [Peptide analog F2]",
    "measured_value": "38.7 % biomass (reduction)"
  }
]

Now consider a different binder.
What Biofilm formation (SDM-glucose), S. mutans UA159, 5 µg/ml peptide value was documented for this binder, SGTLSTFFRLFNRSFTQA [Peptide analog B3 (JH1005 CSP sequence)] ?
34.4 % biomass (reduction)
